# Test Details: basal HepG2 mitochondrial membrane potential changes, profiling panel, cell-based, JC-1 fluorescence, 24 h, 100 nL compound (AID 1167); note: test concentration not given here
# Particulars: higher = more signal
Property Measured: z-score
Give your answer as a number; write no unit.

Completed entries (count: 2):
- Molecule: "[N-]=[N+]=Nc1ccccc1[C@@H]1OC(c2ccc(OCCCO)cc2)=N[C@]1(CCS(=O)(=O)c1ccccc1)C(=O)NCCN1CCOCC1"
  Property Measured: "z-score"
  Reported Measurement: 0.0652
- Molecule: "[N-]=[N+]=NCc1ccccc1[C@H]1OC(c2ccc(OCCCO)cc2)=N[C@@]1(CCS(=O)(=O)c1ccccc1)C(N)=O"
  Property Measured: "z-score"
  Reported Measurement: -2.13

Tell me the measured z-score of "CCCC[C@@H]1C[C@H]1[C@@H](NC(=O)c1ccccc1)c1ccc(Cl)cc1" , please.
0.229

Any idea what its z-score is? The molecule is "COC(=O)[C@]1(CCS(=O)(=O)c2ccccc2)N=C(c2ccc(OCCCO)cc2)O[C@@H]1c1ccccc1CN=[N+]=[N-]"
-1.05

Form field: reported z-score of CCCCN1CC=CC23O[C@@H]4/C=C\CCC(C)OC(=O)C4[C@H]2C(=O)N(CCCCCCO)[C@@H]3C1=O (stereo not given in full)
0.375

Value lookup for z-score; key = "COCCCNC(=O)[C@@H]1c2ccccc2C(=O)N(Cc2ccccc2C(F)(F)F)[C@H]1c1ccc(CO)cc1"
2.55

Param item = "COC(=O)[C@@]1(Cc2ccccc2)[C@H]2c3cc(C(=O)N4CCCC4)n(Cc4ccsc4Br)c3C[C@H]2CN1C(=O)c1ccccc1" ; retrieve measured z-score.
1.6

For "C=C[C@H](COC(C)=O)NS(=O)(=O)c1ccc(Br)cc1" , what is its reported z-score?
0.549

I would be grateful if you could share the reported z-score for "COc1cc2c(cc1OC)CN(C(=O)[C@H]1[C@@H]3C(=O)O[C@@H](c4ccccc4)[C@@H](c4ccccc4)N3[C@@H](c3ccc(OCCO)cc3)[C@]13C(=O)Nc1ccc(C#CC4(O)CCCCCC4)cc13)CC2" .
-0.871

Name the recorded z-score for "C=C(C(=O)CC[C@H](OC(=O)c1cccnc1)c1cccc(OCCO)c1)C(C)C" .
-1.03

Could you share which z-score value was measured for "COC(=O)c1c(CC[C@@H](CO)NC(=O)N[C@H](Cn2cc(-c3ccccc3C)nn2)C(C)C)oc(C(C)=O)c1C(=O)OC" ?
-0.24

Looking for the measured z-score of "NC(=O)NCC#Cc1ccc2c(c1)[C@]1(C(=O)N2)[C@H](c2ccc(O)cc2)N2[C@H](c3ccccc3)[C@H](c3ccccc3)OC(=O)[C@H]2[C@@H]1C(=O)Nc1nc2ccccc2s1" , can you help?
-3.24

I'd like to know its z-score. The molecule in question is COc1cc2c(cc1O)C(C)N(Cc1cc3c(cc1Br)OCO3)CC2 (stereo not given)
-0.378

Endpoint output: z-score of "[N-]=[N+]=Nc1ccccc1[C@H]1OC(c2ccc(OCCCO)cc2)=N[C@@]1(CCS(=O)(=O)c1ccccc1)C(=O)N1CCCCC1" . Value?
0.43

Query: z-score; subject: "COC(=O)[C@@]1(Cc2ccc(F)cc2)[C@H]2c3cc(C(=O)N4CCCC4)n(CCc4c[nH]c5ccc(OC)cc45)c3C[C@H]2CN1C(=O)c1ccccc1"
1

###

# Test Details: yeast growth modulation, basal conditions, primary screen, YJM789 clinical isolate, OD600, 24 h (AID 1089);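 note: growth of clinical yeast isolate S. cerevisiae YJM 789 seeded 1000 cells per well; test concentration not given here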
# Particulars: S. cerevisiae YJM789 growth, higher = more signal, called active from +8 up or from −8 down
Property Measured: z-score
Kindly provide the number alone.

See these solved cases before continuing.
- Compound: "COc1ccc(C(O)C2C=CC3C(=O)N(c4ccccc4)C(=O)C3N2Nc2ccccc2)cc1OCc1ccccc1 (stereo not drawn)"
  Property Measured: "z-score"
  Reported Measurement: -0.177
- Compound: "CN(C)CCCNC(=O)[C@@]1(C)c2ccccc2C(=O)N(Cc2cc(C(F)(F)F)cc(C(F)(F)F)c2)[C@H]1c1ccc(CO)cc1"
  Property Measured: "z-score"
  Reported Measurement: 0.113
- Compound: "C=CC[C@]1(C(=O)N(C)C)N=C(c2ccc(OCCCO)cc2)O[C@H]1c1ccccc1N=[N+]=[N-]"
  Property Measured: "z-score"
  Reported Measurement: 0.0061
- Compound: "CO[C@H]1O[C@H](CO)[C@@H](OC(=O)Nc2ccc(C(F)(F)F)cc2)[C@H](OC(=O)Nc2ccc3c(c2)OCO3)[C@H]1OC(=O)Nc1ccc2c(c1)OCO2"
  Property Measured: "z-score"
  Reported Measurement: 0.724
- Compound: "O=C1O[C@@H](c2ccccc2)[C@@H](c2ccccc2)N2[C@@H](c3ccc(O)cc3)[C@]3(C(=O)Nc4ccccc43)[C@@H](C(=O)Nc3nc4ccccc4s3)[C@H]12"
  Property Measured: "z-score"
  Reported Measurement: 0.813

Request the reported z-score associated with "COCCOC(=O)N1C(=O)[C@@]2(c3cc(C#CC4(O)CCCCCC4)ccc31)[C@H](C(N)=O)[C@H]1C(=O)O[C@H](c3ccccc3)[C@H](c3ccccc3)N1[C@@H]2c1ccccc1OCCO"
1.53

Fill in: z-score of "CCOC(=O)C[C@H]1[C@H](OC(=O)c2ccccc2-c2ccccc2)[C@@H](NC(=O)c2ccc3ccccc3n2)c2cc(OCCCO)ccc2N1C(=O)c1ccc2ccccc2n1" is ___
-0.717

Name the reported z-score value associated with the compound "COc1cc2c(cc1OC)CN(C(=O)[C@@H]1[C@H]3C(=O)O[C@H](c4ccccc4)[C@H](c4ccccc4)N3[C@H](c3ccccc3OCCO)[C@@]13C(=O)Nc1ccc(C#CC4(O)CCCCCC4)cc13)CC2"
2.74

Any idea what z-score was measured for "CCCC=C(CCC)[C@@H](NP(=O)(c1ccccc1)c1ccccc1)c1ccc(C(F)(F)F)cc1" ?
-0.276

Tell me the measured z-score of "COCCOC(=O)N1C(=O)[C@@]2(c3ccccc31)[C@H](C(=O)N1CCN(c3ncccn3)CC1)[C@H]1C(=O)O[C@H](c3ccccc3)[C@H](c3ccccc3)N1[C@@H]2c1ccc(OCCO)cc1" , please.
2.53

Entry CC=CC(O)C1C=CC2C(=O)N(C)C(=O)C2N1Nc1ccc([N+](=O)[O-])cc1[N+](=O)[O-] (stereo not drawn) : reported z-score = ?
0.837

What value of measured z-score is listed for "C=C[C@@H](COC(C)=O)NS(=O)(=O)c1ccc(Br)cc1" ?
-0.952

Name the reported z-score value associated with the compound CCCCN1CC=CC23O[C@@H]4/C=C\CCC(C)OC(=O)C4[C@H]2C(=O)N(CCCCCCO)[C@@H]3C1=O (stereo partly drawn)
-0.287

###

# Test Details: cell viability in Huh7 cells, primary screen, cytotoxicity control for HCV replication inhibitor project, CellTiter-Glo luminescence, basal, 48 h (AID 1143);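 note: Huh7 hepatoma cells carrying a hepatitis C replication reporter with no stimulus; test concentration not given here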
# Particulars: Huh7 HCV replicon, higher = more signal, called active from +8 up or from −8 down
z-score values, listed per item
# print the numeric value only

Known results for compounds:
- Compound: "CCOC(=O)C[C@H]1[C@H](OC(=O)c2ccccc2-c2ccccc2)[C@@H](NC(=O)CC(C)C)c2cc(OCCCO)ccc2N1C(=O)c1ccc2ccccc2n1"
  z-score: -0.431
- Compound: "[N-]=[N+]=Nc1ccccc1[C@H]1OC(c2ccc(OCCCO)cc2)=N[C@@]1(CCS(=O)(=O)c1ccccc1)C(=O)N1CCCCC1"
  z-score: -4.28
- Compound: "C[C@@H](OCc1ccccc1)C1NC(=O)[C@@]23C(=O)N[C@@H](Cc4ccccc4)C2[C@H](C)[C@@]2(C)O[C@H]2C3/C=C/C/C=C\\CNC(=O)CNC1=O (stereo partly drawn)"
  z-score: -2.16
- Compound: "COC(=O)[C@@]1(Cc2ccc(F)cc2)[C@H]2c3cc(C(=O)N4CCCC4)n(CCF)c3C[C@H]2CN1C(=O)c1ccccc1"
  z-score: -2.28
- Compound: "COC(=O)[C@@]1(Cc2ccccc2)[C@H]2c3cc(C(=O)N4CCCC4)n(C[C@H](O)CO)c3C[C@H]2CN1C(=O)c1ccccc1"
  z-score: 0.0728
- Compound: "O=C1c2ccccc2[C@](Cc2ccccc2I)(C(=O)NCCN2CCOCC2)[C@H](c2ccc(CO)cc2)N1Cc1ccccc1"
  z-score: -1.98
- Compound: "CN(C)CCCNC(=O)[C@@]1(c2ccc([N+](=O)[O-])cc2)CC(=O)N(CC23CC4CC(CC(C4)C2)C3)[C@@H]1c1ccc(CO)cc1"
  z-score: -5.82
- Compound: "CN1C(=O)C2C=CC(C(O)C3CCCCC3)N(N3CCCCC3)C2C1=O (stereo not drawn)"
  z-score: 0.505

What does the record list as z-score for "NC(=O)NCC#Cc1ccc2c(c1)[C@]1(C(=O)N2)[C@H](c2ccc(O)cc2)N2[C@H](c3ccccc3)[C@H](c3ccccc3)OC(=O)[C@H]2[C@@H]1C(=O)Nc1nc2ccccc2s1" ?
-0.623

Consider the compound "O=C1O[C@@H](c2ccccc2)[C@@H](c2ccccc2)N2[C@@H](c3ccc(O)cc3)[C@]3(C(=O)Nc4ccc(C#CCCO)cc43)[C@@H](C(=O)NC[C@H](O)c3ccccc3)[C@H]12" and give its measured z-score.
0.058

Which measured z-score value corresponds to "CN(C)CCCNC(=O)[C@@H]1c2ccccc2C(=O)N(CC23CC4CC(CC(C4)C2)C3)[C@H]1c1ccc(CO)cc1" ?
-4.72

Form field: reported z-score of "Cc1ccc(S[C@]2(C(=O)NC3CC3)CC(=O)N(Cc3ccccc3Cl)[C@@H]2c2ccc(CO)cc2I)cc1"
-1.5
